Biological target: STAT6 protein (Homo sapiens, UniProt P42226)
Sequence (P42226 1-847): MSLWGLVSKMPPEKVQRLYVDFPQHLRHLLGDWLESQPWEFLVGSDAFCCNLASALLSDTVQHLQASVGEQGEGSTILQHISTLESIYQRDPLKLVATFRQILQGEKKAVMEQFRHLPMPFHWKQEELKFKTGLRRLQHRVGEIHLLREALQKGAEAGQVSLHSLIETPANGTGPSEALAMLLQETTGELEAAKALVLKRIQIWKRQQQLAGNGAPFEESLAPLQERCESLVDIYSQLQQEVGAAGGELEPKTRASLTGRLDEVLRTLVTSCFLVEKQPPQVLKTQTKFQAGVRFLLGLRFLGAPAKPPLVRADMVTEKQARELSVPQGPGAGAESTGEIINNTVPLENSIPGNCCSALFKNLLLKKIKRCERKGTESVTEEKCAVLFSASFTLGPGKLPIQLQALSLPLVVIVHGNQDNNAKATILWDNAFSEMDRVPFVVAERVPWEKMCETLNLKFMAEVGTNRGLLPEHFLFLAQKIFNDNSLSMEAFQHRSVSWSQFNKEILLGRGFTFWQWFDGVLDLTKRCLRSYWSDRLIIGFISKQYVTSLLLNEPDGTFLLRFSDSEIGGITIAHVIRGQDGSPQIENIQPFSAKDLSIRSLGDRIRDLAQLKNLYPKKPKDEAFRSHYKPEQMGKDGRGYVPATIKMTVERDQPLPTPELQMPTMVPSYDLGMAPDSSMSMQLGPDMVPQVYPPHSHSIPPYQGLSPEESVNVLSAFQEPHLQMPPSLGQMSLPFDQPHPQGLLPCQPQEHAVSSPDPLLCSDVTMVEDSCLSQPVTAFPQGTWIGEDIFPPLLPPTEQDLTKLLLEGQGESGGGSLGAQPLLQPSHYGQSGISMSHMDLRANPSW
Assay: Fluorescence polarization (FP) binding assay, STAT6
Conditions: FP competition, 5 nM fluorescein-labeled tracer, 200 nM protein, PBS pH7.4; read-out: Binding STAT6
Property: Ki; scope: individual compounds

These solved cases illustrate the format of a correct answer.
CCOC(=O)CO[C@H]1C[C@@H](C(=O)N(C)c2ccc(Br)cc2)N(C(=O)[C@@H](NC(=O)c2cc3cc(C(F)(F)P(=O)(O)O)ccc3s2)C(C)(C)C)C1
100 to 1000 nM
CC(C)(C)[C@H](NC(=O)c1cc2cc(C(F)(F)P(=O)(O)O)ccc2s1)C(=O)N1CCC[C@H]1C(=O)N1CCOC(c2ccc(F)c(F)c2)C1 (some centres unmarked)
100 to 1000 nM
CC(C)(C)[C@H](NC(=O)c1cc2cc(C(F)(F)P(=O)(O)O)ccc2s1)C(=O)N1CCC[C@H]1C(=O)N1CCC(O)C(c2ccccc2)C1 (some centres unmarked)
1000 to 10000 nM
CC(C)(C)[C@H](NC(=O)c1cc2cc(C(F)(F)P(=O)(O)O)ccc2s1)C(=O)N1CCC[C@H]1C(=O)N1CC(C(=O)O)CC(c2ccccc2)C1 (some centres unmarked)
1000 to 10000 nM
CC(C)(C)[C@H](NC(=O)c1cc2cc(C(F)(F)P(=O)(O)O)ccc2s1)C(=O)N1Cc2ccccc2C[C@H]1C(=O)N1CCOC(c2ccc(Cl)cc2)C1 (some centres unmarked)
100 to 1000 nM

Form field: reported Ki of `CN1CCC(C[C@H](NC(=O)c2cc3cc(C(F)(F)P(=O)(O)O)ccc3s2)C(=O)N2CCC[C@H]2C(=O)N2CCO[C@H](c3ccccc3)C2)CC1`
100 to 1000 nM
